target: Cytochrome P450 3A4 (Homo sapiens);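 note: CYP3A4 tested as one member of a cytochrome P450 panel screen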
Sequence (P08684 whole entry): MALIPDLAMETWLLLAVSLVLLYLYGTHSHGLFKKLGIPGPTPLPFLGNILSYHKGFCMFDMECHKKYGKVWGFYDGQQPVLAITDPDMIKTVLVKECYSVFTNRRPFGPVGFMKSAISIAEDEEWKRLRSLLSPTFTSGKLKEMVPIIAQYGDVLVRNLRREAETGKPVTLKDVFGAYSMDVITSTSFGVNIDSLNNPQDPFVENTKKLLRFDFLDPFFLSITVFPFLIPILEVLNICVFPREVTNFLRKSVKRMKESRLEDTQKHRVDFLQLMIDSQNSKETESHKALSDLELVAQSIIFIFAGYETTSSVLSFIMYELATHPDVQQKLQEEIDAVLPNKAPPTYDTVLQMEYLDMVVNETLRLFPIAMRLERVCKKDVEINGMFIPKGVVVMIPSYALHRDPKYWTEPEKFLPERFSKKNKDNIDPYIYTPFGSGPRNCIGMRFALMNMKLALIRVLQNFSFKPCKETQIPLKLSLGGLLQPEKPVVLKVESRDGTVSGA
property name: AC50

Sample records with AC50:
{"sample smiles": "C[C@@H]1O[C@@H]2C3=C(C(=O)[C@H]4O[C@@H]4[C@H]3O)C1[C@@H]1[C@@H](C)OC=C3[C@H](O)[C@H]4O[C@@H]4/C(=N\\OCc4ccccc4)[C@@]321", "AC50": "6.31 µM (inconclusive)"}
{"sample smiles": "O=c1c(-c2cc(F)cc(F)c2)nc2cncnc2n1Cc1ccc(F)cc1", "AC50": "10 µM (inconclusive)"}
{"sample smiles": "O=C(Oc1ccccc1)N1CCC2(CC1)CN(c1ccncc1)C2", "AC50": "15.8 µM (inconclusive)"}

Now let's try a different one.
Record Cc1ccc(N2C(=O)/C(=C/N3CCN(C(=O)c4ccco4)CC3)C(=O)NC2=S)cc1C , field AC50: 25.1 µM (inconclusive)
